- Tested on: Staphylococcus aureus (RCMB 0106)
- Test Description: Antimicrobial screening, disc diffusion
- Type: cell-based
- Details: compounds isolated from Cunninghamella elegans
Entries and their Diameter of inhibition zone values follow.
Numbers only; they are read as mm.

Worked cases, Diameter of inhibition zone given:
Compound	Diameter of inhibition zone [mm]
Nc1ncnc2c1ncn2C1OC(CO)C(O)C1O (stereo not shown)	30.0
CCCCCCCC/C=C\CCCCCCCC(=O)O	11.0
CCCCCCCCCCCCCCCC(=O)O	13.0
C=C(CC(=O)O)C(=O)OC	07.0
CCCCCCCCCCCCCCCCCC(=O)O	15.0

Fill in: Diameter of inhibition zone of O=C(O)c1cc(O)c(O)c(O)c1 [Compound 7, 3,4,5-trihydroxy-benzoic acid] is ___
05.0

Another compound to check: O=c1ccn([C@@H]2O[C@H](CO)[C@@H](O)[C@H]2O)c(=O)[nH]1
11.0
